# SUBJECT OF TEST: Thrombin (Homo sapiens)
# ASSAY: Thrombin inhibitory effects (Hestrin color method, tosylarginine methyl ester substrate)
# Assay type: biochemical
# EXPERIMENTAL SETUP: pH 7.4, 10 min preincubation, 30 min at 37° C., methyl ester of tosylarginine; read-out: 50% Inhibitory Concentration, Thrombin
# Experimental: Following the procedure of Tamura et al [Biochim. Biophys. […] The remaining substrate was caused to develop a color in accordance with the Hestrin method, and the amount was determined by measuring the absorbance at 530 nm.
METRIC NAME: IC50 (µM)

Sample answers from the record:
COMPOUND	IC50 (µM)
COc1ccc2[nH]c(C)c(CC(=O)Oc3ccc(C(=O)NCCN4CCN(CC(=O)N5CCOCC5)CC4)cc3)c2c1	100
COc1ccc2[nH]c(C)c(CC(=O)Oc3ccc(C(=O)OCCN4CCN(CC(=O)N5CCOCC5)CC4)cc3)c2c1	70

(a) O=C(Cc1cccc2ccccc12)Oc1ccc(C(=O)OCCN2CCN(CC(=O)N3CCCCC3)CC2)cc1
(b) COc1ccc2[nH]cc(CC(=O)Oc3ccc(C(=O)OCCN4CCN(CC(=O)N5CCCC5)CC4)cc3)c2c1
(c) O=C(OCCN1CCN(CC(=O)N2CCOCC2)CC1)c1ccc(OC(=O)C2CCCc3ccccc32)cc1 (stereo not drawn)
(d) COc1ccc2[nH]c(C)c(CC(=O)Oc3ccc(C(=O)OCCN4CCN(CC(=O)N(C)C)CC4)cc3)c2c1
Please list these compounds in decreasing order of IC50. Please list the labels according to the requested order. b, c, d, a

---

Target sequence: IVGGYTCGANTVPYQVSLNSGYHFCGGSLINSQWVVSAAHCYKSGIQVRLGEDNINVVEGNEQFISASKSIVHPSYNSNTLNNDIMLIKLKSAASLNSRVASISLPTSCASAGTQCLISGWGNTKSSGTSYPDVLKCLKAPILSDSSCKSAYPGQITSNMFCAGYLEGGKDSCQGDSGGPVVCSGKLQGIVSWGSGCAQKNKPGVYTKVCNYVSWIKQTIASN
METRIC NAME: IC50 (µM)

Take a look at these entries with their results.
COMPOUND	IC50 / µM
COc1ccc2c(c1)c(CC(=O)Oc1ccc(C(=O)OCCN3CCN(CC(=O)N4CCCC4)CC3)cc1)c(C)n2C	500
COc1ccc2[nH]c(C)c(CC(=O)Oc3ccc(C(=O)OCCN4CCN(CC(=O)N(C)C)CC4)cc3)c2c1	80
COc1ccc2[nH]c(C)c(CC(=O)Oc3ccc(C=CC(=O)N4CCN(CC(=O)N5CCCC5)CC4)cc3)c2c1	600

(P) COc1ccc2[nH]c(C)c(CC(=O)Oc3ccc(C(=O)OCCN4CCN(CCN5CCOCC5)CC4)cc3)c2c1
(Q) COc1ccc2[nH]c(C)c(CC(=O)Oc3ccc(C(=O)OCCN4CCN(C)CC4)cc3)c2c1
(R) O=C(OCCN1CCN(CC(=O)N2CCOCC2)CC1)c1ccc(OC(=O)C2CCCc3ccccc32)cc1 (stereo not drawn)
(S) COc1ccc2[nH]c(C)c(CC(=O)Oc3ccc(C(=O)NCCN4CCN(CC(=O)N5CCOCC5)CC4)cc3)c2c1
Rank descending by IC50. Please list each label once, in the requested order. R, Q, S, P
(R: 500 µM, Q: 300 µM, S: 80 µM, P: 50 µM)
